system: CCRF-CEM leukemia; assay: NCI tumour cell line growth inhibition, 48 h; in the data active = GI50 below about 0.43 µM; inactive = the rest
Classes used: 1 (yes) (active), 0 (no) (inactive)

>  <COMPOUND>
Cn1c(Cl)c(/C=C2/C(=O)Nc3ccccc32)c2ccccc21

>  <ANSWER_LABEL>
0 (no)

$$$$
>  <COMPOUND>
C=C1c2c(C)nn(-c3ccc(C#CCOC4OC(CO)C(O)C(O)C4O)cc3)c2N(C)C23C[C@H]1C1(C)c4c(C)nn(-c5ccc(C#CCOC6OC(CO)C(O)C(O)C6O)cc5)c4N(C)C(C)(C[C@H]12)C3 (stereo partly drawn)

>  <ANSWER_LABEL>
0 (no)

$$$$
>  <COMPOUND>
NC(CSC(c1ccccc1)(c1ccccc1)c1ccccc1)C(=O)NCC(=O)O (stereo not drawn)

>  <ANSWER_LABEL>
0 (no)

$$$$
>  <COMPOUND>
COc1cccc2c1C(=N)c1c(O)c3c(c(O)c1C2=O)C[C@@](O)(C(C)=O)C[C@@H]3O[C@H]1C[C@H](N)[C@H](O)[C@H](C)O1

>  <ANSWER_LABEL>
1 (yes)

$$$$
>  <COMPOUND>
CC(C)CNc1nc(-c2ccccc2Cl)nc2ccccc12

>  <ANSWER_LABEL>
0 (no)

$$$$
>  <COMPOUND>
CC1(C)N=C(N)N=C(N)N1c1ccc(CCC(=O)Nc2ccc(S(=O)(=O)F)cc2)c(Cl)c1

>  <ANSWER_LABEL>
0 (no)

$$$$
>  <COMPOUND>
CCCC(C)c1ccc(OCCCCCCN2CCNCC2)cc1 (stereo not drawn)

>  <ANSWER_LABEL>
0 (no)

$$$$
>  <COMPOUND>
CCOc1cccc(/C=N/NC(=O)c2cccc(Nc3ccnc(C(F)(F)F)c3)c2)c1O

>  <ANSWER_LABEL>
1 (yes)

$$$$

----------
test system: SN12C renal; assay: NCI tumour cell line growth inhibition, 48 h; in the data active = GI50 below about 0.43 µM; inactive = the rest
Classes used: active, inactive

>  <COMPOUND>
CCCC(C)c1ccc(OCCCCCCN2CCNCC2)cc1 (configuration not stated)

>  <ANSWER_LABEL>
inactive

$$$$
>  <COMPOUND>
CC(=O)OC1OC([C@H]2c3cccc(O)c3C(=O)c3c(O)cc(C)cc32)C(O)C(O)C1O (some centres not stated)

>  <ANSWER_LABEL>
active

$$$$
>  <COMPOUND>
CCOc1cccc(/C=N/NC(=O)c2cccc(Nc3ccnc(C(F)(F)F)c3)c2)c1O

>  <ANSWER_LABEL>
inactive

$$$$
>  <COMPOUND>
COc1ccc2c(c1)C(=O)/C(=C/c1cccc(OCC(=O)c3ccccc3)c1)O2

>  <ANSWER_LABEL>
inactive

$$$$
>  <COMPOUND>
CCCCCCCCn1ccc2cc(NC(=O)Cn3cc(CN4CCCCCC4)nn3)ccc21

>  <ANSWER_LABEL>
inactive

$$$$
>  <COMPOUND>
C=C(C)[C@@H]1CC[C@]2(COCCCN)CC[C@]3(C)[C@H](CC[C@@H]4[C@@](C)(CCCNCCCN)[C@H](C(=C)C)CC[C@]43C)[C@@H]12

>  <ANSWER_LABEL>
inactive

$$$$
>  <COMPOUND>
CCCOC(=O)N[C@H]1CCc2c(Cl)c(OC)c(OC)c(OC)c2-c2ccc(SC)c(=O)cc21

>  <ANSWER_LABEL>
active

$$$$
>  <COMPOUND>
C[C@]12CCc3sc(Nc4ccc(OC(F)(F)F)cc4)nc3C1=CC[C@@H]1[C@@H]2CC[C@]2(C)C(=O)CC[C@@H]12

>  <ANSWER_LABEL>
inactive

$$$$
>  <COMPOUND>
Nc1ncc(-c2cnn(C3CCNCC3)c2)cc1-c1nc2cc(Cl)ccc2o1

>  <ANSWER_LABEL>
inactive

$$$$
>  <COMPOUND>
Nc1n[nH]c2cccc(C#Cc3cccc(NC(=O)c4cccc(C(F)(F)F)c4)c3)c12

>  <ANSWER_LABEL>
inactive

$$$$
>  <COMPOUND>
COc1ccc2c(c1)OC1=C(C(=O)OC1)C2c1cc(OC)c2c(c1)OCCO2 (configuration not stated)

>  <ANSWER_LABEL>
active

$$$$
>  <COMPOUND>
CN(c1ccc(NC(=O)Nc2c(Cl)cccc2Cl)cc1)c1ccnc(Nc2cccc(CS(C)(=O)=O)c2)n1

>  <ANSWER_LABEL>
inactive

$$$$

----------
tested on: OVCAR-8 ovarian; test: NCI tumour cell line growth inhibition, 48 h; in the data active = GI50 below about 0.43 µM; inactive = the rest
Classes used: active, inactive

>  <COMPOUND>
COc1ccc2c(c1)C(=O)/C(=C/c1cccc(OCC(=O)c3ccccc3)c1)O2

>  <ANSWER_LABEL>
inactive

$$$$
>  <COMPOUND>
CCCOC(=O)N[C@H]1CCc2c(Cl)c(OC)c(OC)c(OC)c2-c2ccc(SC)c(=O)cc21

>  <ANSWER_LABEL>
active

$$$$
>  <COMPOUND>
Cc1cn(-c2cc(NC(=O)c3cccc(C#Cc4cccc5[nH]nc(N)c45)c3)cc(C(F)(F)F)c2)cn1

>  <ANSWER_LABEL>
inactive

$$$$
>  <COMPOUND>
Cc1ccc(C2=C(c3ccc(C)cc3)C3(c4ccc(C)cc4)C4C(=O)OC(=O)C4C2(c2ccc(C)cc2)S3=O)cc1 (stereo not drawn)

>  <ANSWER_LABEL>
inactive

$$$$
>  <COMPOUND>
COc1cccc2c1C(=N)c1c(O)c3c(c(O)c1C2=O)C[C@@](O)(C(C)=O)C[C@@H]3O[C@H]1C[C@H](N)[C@H](O)[C@H](C)O1

>  <ANSWER_LABEL>
active

$$$$
>  <COMPOUND>
CN(C)C/C=C/C(=O)Nc1ccc(C(=O)N[C@@]2(C)CCC[C@@H](Nc3ncc(Cl)c(-c4c[nH]c5ccccc45)n3)C2)nc1

>  <ANSWER_LABEL>
active

$$$$
>  <COMPOUND>
Cc1nnc(-c2ccc(C)c(-c3ccc(C(=O)Nc4cccc(C#N)c4)cc3)c2)o1

>  <ANSWER_LABEL>
inactive

$$$$
>  <COMPOUND>
N[C@H](C(=O)O)[C@@H]1CC(Cl)=NO1

>  <ANSWER_LABEL>
inactive

$$$$

----------
// TGI lookup, one value per entry
system: SK-OV-3 ovarian; experiment: NCI tumour cell line growth inhibition, 48 h

>  <MOLECULE>
OC(CNc1ccccn1)c1ccccc1 (centres undefined)

>  <TGI>
> 100 µM

$$$$
>  <MOLECULE>
O=c1oc2ccccc2c(Nc2ccc3c(c2)Sc2ccccc2O3)c1[N+](=O)[O-]

>  <TGI>
> 100 µM

$$$$
>  <MOLECULE>
CCN1C(=O)c2ccc3c4c(ccc(c24)C1=O)C(=O)N(CCCNCc1ccccc1OC)C3=O

>  <TGI>
7.04 µM

$$$$
>  <MOLECULE>
COC(=O)C1=C(OC(=O)/C(=C/c2ccccc2)c2ccc(Cl)cc2Cl)C(C(=O)OC)[C@@]2(O)[C@@H](C(=O)OC)[C@H](C)C[C@@H]1[C@@H]2C(=O)OC (some centres undefined)

>  <TGI>
> 100 µM

$$$$
>  <MOLECULE>
CC1(C)C2CCC1(C)C(N/C(Sc1ccccc1)=C(/C(Cl)=C(Cl)Cl)[N+](=O)[O-])C2 (centres undefined)

>  <TGI>
34.7 µM

$$$$
>  <MOLECULE>
COc1ccc2c(c1)/C(=C\c1c(Cl)[nH]c3cc(C)c(OC)cc13)C(=O)N2

>  <TGI>
3.07 µM

$$$$
>  <MOLECULE>
CCCCCCCCCC[C@@H](OC(C)=O)[C@@H]1CC[C@@H]([C@@H]2CC[C@@H]([C@@H](O)CC#C/C=C/CCCCCCC[C@@]3(Sc4ccccc4)C[C@H](C)OC3=O)O2)O1

>  <TGI>
> 10 µM

$$$$
>  <MOLECULE>
O=C(O)CO[C@@]12C#C/C=C\C#C[C@@H]3N(C(=O)Oc4ccccc4)c4ccccc4[C@]14O[C@@]34CCC2

>  <TGI>
19.9 µM

$$$$
>  <MOLECULE>
N#C/C(=C/c1cccc(Oc2ccccc2)c1)c1ccccc1

>  <TGI>
> 100 µM

$$$$
>  <MOLECULE>
CCOC(=O)c1sc(=S)n(-c2ccc(Cl)cc2)c1-n1cc(-c2ccccc2)c(C#N)c1N

>  <TGI>
36 µM

$$$$
>  <MOLECULE>
CC(=O)Oc1c(C)c(-c2ccccc2)c(C)c(-c2ccccc2)c1C(=S)c1ccccc1

>  <TGI>
> 100 µM

$$$$
>  <MOLECULE>
CC(=O)SCCC(NC(=S)Nc1ccccc1)P(=O)(Oc1ccccc1)Oc1ccccc1 (centres undefined)

>  <TGI>
> 100 µM

$$$$
>  <MOLECULE>
CCC1=CCN(c2cc(C)ccn2)OC1c1ccc(OC)cc1 (centres undefined)

>  <TGI>
> 100 µM

$$$$
>  <MOLECULE>
C=CCCON(C(=O)OC(C)(C)C)c1ccccc1

>  <TGI>
> 100 µM

$$$$
>  <MOLECULE>
C[C@]12CCc3sc(Nc4ccc(OC(F)(F)F)cc4)nc3C1=CC[C@@H]1[C@@H]2CC[C@]2(C)C(=O)CC[C@@H]12

>  <TGI>
10 µM

$$$$
>  <MOLECULE>
CC1(C)N/C(=C\[N+](=O)[O-])C(C)(C)N1O

>  <TGI>
> 10 µM

$$$$
>  <MOLECULE>
[N-]=[N+]=NCCCn1c2c(c3ccc([N+](=O)[O-])cc3c1=O)C(=O)c1ccccc1-2

>  <TGI>
> 100 µM

$$$$
>  <MOLECULE>
COc1ccc2c(c1)CN1C(=N2)CSC1c1cccc(Br)c1 (centres undefined)

>  <TGI>
> 100 µM

$$$$
>  <MOLECULE>
Nc1ncc(-c2cnn(C3CCNCC3)c2)cc1-c1nc2cc(Cl)ccc2o1

>  <TGI>
3.22 µM

$$$$
